B1: tRNA (parent)
chain: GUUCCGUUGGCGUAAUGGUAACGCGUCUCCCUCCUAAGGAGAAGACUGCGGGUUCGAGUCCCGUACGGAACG

Variants of: B1
Assay: yeast fitness relative to wild type (ratio to wild type); higher = fitter; tRNA-Arg(CCU), competitive growth, 37 C, YPD
This sample holds only a part of the variants without activity.
property: yeast fitness

Field yeast fitness (entry GUUCCGUUGGCGUAAUGGUAACGUGGCUCCCUCCUGAGGAGAGGACUGCGGGUUCGAGUCCCGUACGGAACG [C24U U26G A36G A43G] ) reads ≤ 0.5

GUACCGUUGGCGAAAUGGUAAUGUGUCUCCCUCCUAAGGAGAAGACUGCGGGUUCGAGUCCCGUACGGAACG [U3A U13A C22U C24U] yielded yeast fitness of ≤ 0.5

The value of yeast fitness measured for the variant GUUCCGUUGGCGUAAUGGUAACGCGUCUCCCUCCUAAGGAGAAGACUGAGCGUUCGAGACCCGUACGGAACG [C49A G51C U59A] turned out to be ≤ 0.5

Per the records, this variant ( GUUCCGUUGGCGUAAUGGUAACGCGUCUCCCUCCUAAGGAGAAGACUGUGGGUUCGAGUCCCGUACCGAACG [C49U G67C] ) has yeast fitness equal to 0.851

Record GGUCCGUUGGCGUAAUCGUAACGCGUCUCCCUUCUAAGGAGAAGACAGCGGGUUCGAGUCCCGUACGGUACG [U2G G17C C33U U47A A69U] . Reported yeast fitness: ≤ 0.5

Please fill in: yeast fitness reported for GUUCUGUUGGCGUAAUGGUAACGCGUCUACCUCCUAUAGAGAAGACUGCGGGUUCGAGUCCCGUACGGAACG [C5U C29A A37U G38A] = ≤ 0.5

yeast fitness measured on GUUCCGUUGGAGUACUGGUAACGGGUCUCCCUCCUAAGGAGAAGACUGCGGGUUCGAGACCCGUACGGAACG [C11A A15C C24G U59A] = ≤ 0.5

Lookup result for GUUCCGGUGGCGUAAUGGUGACGCGUUUCCCUCCUAAGGAGAAGACUGGGGCUUCGAGUCCCGUACGGAGCG [U7G A20G C27U C49G G52C A70G] ; measured yeast fitness: ≤ 0.5

Lookup result for GUACCGUUGGCGUAAUGGUAACGCGUCUCCCUCCUAAGGAGAAGACUGCGGGUUCGAGUCCCGUGCGAAUCG [U3A A65G G68A A70U] ; measured yeast fitness: 0.556

Lab book: yeast fitness of GUUCCGUUGGCGUAAUGGUAACGCGUCUCCCGGCUAAGGAGAAGACUGCGGGUUCGAGUCCCGUACGGAUCG [U32G C33G A70U] noted as 0.543

GUUCCAUUGGCGUAAUGGUAACGCGUCUCCCUCCUAAGGAGAAGACUGCGGGUACGAGUCCUGUGCGAAACG [G6A U54A C62U A65G G68A] has a reported yeast fitness of 0.548

The measured yeast fitness associated with GCUCCGUUGGCGUAAUGGUAACGCGUGACCCUCCUAAGGAGAUGACUGCGGGUUCGAGUCCCGUACGGUACG [U2C C27G U28A A43U A69U] reads 0.541

Lab note: measured yeast fitness of GUUCCGUUGGCGUCAUGGUAAAGCGUCUCCCUCCUAAGGAGAAGAAUGCGGGUUCGAGUCCCGUACGGAACG [A14C C22A C46A] was 0.605

Documented yeast fitness of GUUCCGUUGGCGUAAUGGUAACGCGUCACCCGCCUAAGGAGAAGACUGCGGGUUGGAGUCCCGUACGGAACG [U28A U32G C55G] : 0.505

Note to self: yeast fitness recorded for GUUCCAUUGGCGGAAUGGUAACGCGUCUCCCUCCUAAGGAGAAGACUGCGGGUUAGAGUCCCGUACGGAACG [G6A U13G C55A] was ≤ 0.5

Briefly, yeast fitness measured for GUUCCGUUCGCGUACCGGUAACGCGUCUCCCUCGUAAGGAGAAGACUGCGGGUUCGAGUCCCGUAAGGCACG [G9C A15C U16C C34G C66A A69C] : ≤ 0.5

GUUCCAUAGGCGUCAUGGUAUCGCGUCUCCCUCCUAAGGGGAAGACUGCGGGUUCGAGUCCCGUACGGAACG [G6A U8A A14C A21U A40G] has a reported yeast fitness of ≤ 0.5

Item: GUACCGUUGGCGUAAUGGUAACGCGUCUCCCUUCUAAGGAGAAAACUGCGGGUUCGAGUCCCGUACGGAACG [U3A C33U G44A] | yeast fitness: ≤ 0.5
